- target.or.system: HiBit-BRM fusion protein (Homo sapiens, UniProt P51531)
- Construct: expressed in transfected cells
- Sequence (P51531 whole entry, the tested form may be a part): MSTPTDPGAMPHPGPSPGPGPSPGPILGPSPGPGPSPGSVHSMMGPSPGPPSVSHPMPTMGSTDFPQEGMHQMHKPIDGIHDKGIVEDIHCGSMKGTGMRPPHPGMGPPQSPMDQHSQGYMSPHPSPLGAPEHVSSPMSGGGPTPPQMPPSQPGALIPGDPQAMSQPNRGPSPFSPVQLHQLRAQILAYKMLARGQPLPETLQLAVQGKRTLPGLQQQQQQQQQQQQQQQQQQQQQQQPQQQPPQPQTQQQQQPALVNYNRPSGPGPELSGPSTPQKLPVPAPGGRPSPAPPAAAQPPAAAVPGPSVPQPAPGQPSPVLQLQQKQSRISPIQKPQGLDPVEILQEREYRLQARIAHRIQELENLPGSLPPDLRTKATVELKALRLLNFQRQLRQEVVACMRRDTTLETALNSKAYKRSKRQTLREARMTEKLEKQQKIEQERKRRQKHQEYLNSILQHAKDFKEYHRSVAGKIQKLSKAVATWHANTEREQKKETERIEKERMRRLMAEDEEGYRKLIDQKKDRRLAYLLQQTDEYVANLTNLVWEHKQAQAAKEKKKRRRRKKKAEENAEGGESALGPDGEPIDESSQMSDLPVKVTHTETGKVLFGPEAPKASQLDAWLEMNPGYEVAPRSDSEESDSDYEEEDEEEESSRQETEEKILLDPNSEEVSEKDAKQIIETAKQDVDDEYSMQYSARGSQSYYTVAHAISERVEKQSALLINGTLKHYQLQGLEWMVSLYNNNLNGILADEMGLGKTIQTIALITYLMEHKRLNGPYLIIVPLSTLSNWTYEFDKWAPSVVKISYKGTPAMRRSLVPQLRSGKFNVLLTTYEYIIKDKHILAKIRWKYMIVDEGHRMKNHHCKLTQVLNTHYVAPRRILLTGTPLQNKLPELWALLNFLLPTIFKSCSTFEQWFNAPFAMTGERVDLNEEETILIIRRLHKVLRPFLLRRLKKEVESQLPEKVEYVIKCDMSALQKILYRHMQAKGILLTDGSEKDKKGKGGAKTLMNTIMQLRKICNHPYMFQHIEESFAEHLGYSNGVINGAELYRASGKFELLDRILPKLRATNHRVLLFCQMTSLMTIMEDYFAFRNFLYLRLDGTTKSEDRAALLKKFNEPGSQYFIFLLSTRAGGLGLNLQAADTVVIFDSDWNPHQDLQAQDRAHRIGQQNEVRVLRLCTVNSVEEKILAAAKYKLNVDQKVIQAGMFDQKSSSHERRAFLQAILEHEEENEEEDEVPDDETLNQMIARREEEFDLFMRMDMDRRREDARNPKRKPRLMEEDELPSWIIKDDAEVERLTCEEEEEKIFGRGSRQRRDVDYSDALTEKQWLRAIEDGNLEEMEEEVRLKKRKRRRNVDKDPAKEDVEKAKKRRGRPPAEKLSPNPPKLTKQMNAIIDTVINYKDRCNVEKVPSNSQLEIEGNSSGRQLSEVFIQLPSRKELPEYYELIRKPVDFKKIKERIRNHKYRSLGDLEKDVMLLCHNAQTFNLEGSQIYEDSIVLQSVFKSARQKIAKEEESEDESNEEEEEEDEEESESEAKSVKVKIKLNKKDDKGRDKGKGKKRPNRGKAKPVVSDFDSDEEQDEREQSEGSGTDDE
- test.protocol: HiBiT-BRM cell-based degradation assay (Nano-Glo HiBiT Lytic Detection, 24 h)
- run.parameters: HeLa cells expressing HiBiT-BRM, read-out: BRM HiBit Degradation IC50
property: DC50

Below: 3 molecules and their reported DC50.
molecule: CS(=O)(=O)n1ccc(C(=O)N[C@@H](CCOCCCC(=O)NCCCCCCNc2ccc3c(c2)C(=O)N(C2CCC(=O)NC2=O)C3=O)C(=O)Nc2nc(-c3ccccc3)cs2)c1 (stereo partly shown)
readout.value: > 10 µM
//
molecule: CN(CC(=O)NCCCCCCCCNc1ccc2c(c1)C(=O)N(C1CCC(=O)NC1=O)C2=O)c1cc(-c2cccc(-c3csc(NC(=O)CNC(=O)c4ccn(S(C)(=O)=O)c4)n3)c2)ccn1 (stereo not shown)
readout.value: > 10 µM
//
molecule: CS(=O)(=O)n1ccc(C(=O)N[C@@H](CCOCCCC(=O)N2CCC3(CC2)CC(Oc2ccc4c(c2)C(=O)N(C2CCC(=O)NC2=O)C4=O)C3)C(=O)Nc2nc(-c3ccccc3)cs2)c1 (stereo partly shown)
readout.value: > 10 µM

Consider the following items and state reported DC50 for each.
1. CN(CC(=O)N1CCC(C2CCN(C(=O)COc3cccc4c3C(=O)N(C3CCC(=O)NC3=O)C4=O)CC2)CC1)c1cc(-c2cccc(-c3csc(NC(=O)CNC(=O)c4ccn(S(C)(=O)=O)c4)n3)c2)ccn1 (stereo not shown)
2. CS(=O)(=O)n1ccc(C(=O)N[C@@H](CCOCCCC(=O)N2CC(COc3ccc4c(c3)C(=O)N(C3CCC(=O)NC3=O)C4=O)C2)C(=O)Nc2nc(-c3ccccc3)cs2)c1 (stereo partly shown)
3. CS(=O)(=O)n1ccc(C(=O)N[C@@H](COCc2ccc(C(=O)NCCCC#Cc3ccc4c(c3)C(=O)N(C3CCC(=O)NC3=O)C4=O)cc2)C(=O)Nc2nc(-c3ccccc3)cs2)c1 (stereo partly shown)
4. Cc1ncsc1-c1ccc(CNC(=O)[C@@H]2C[C@@H](O)CN2C(=O)[C@@H](NC(=O)CCOCCOCCC(=O)NCc2cccc(-c3cccc(-c4csc(NC(=O)CNC(=O)c5ccn(S(C)(=O)=O)c5)n4)c3)c2)C(C)(C)C)cc1
5. CS(=O)(=O)n1ccc(C(=O)NCC(=O)Nc2nc(-c3cccc(-c4ccnc(C5(C(=O)NCCCCS(=O)(=O)CCCNc6cccc7c6C(=O)N(C6CCC(=O)NC6=O)C7=O)CC5)c4)c3)cs2)c1 (stereo not shown)
6. CN(CCOCCOCCNc1cccc2c1C(=O)N(C1CCC(=O)NC1=O)C2=O)C(=O)CN(C)c1cc(-c2cccc(-c3csc(NC(=O)CNC(=O)c4ccn(S(C)(=O)=O)c4)n3)c2)ccn1 (stereo not shown)
7. Cc1cc(C(=O)NCC(=O)Nc2nc(-c3cccc(-c4ccnc(N(C)CC(=O)N5CCC(C6CCN(C(=O)COc7cccc8c7C(=O)N(C7CCC(=O)NC7=O)C8=O)CC6)CC5)c4)c3)cs2)cn1S(C)(=O)=O (stereo not shown)

1. > 10 µM
2. > 10 µM
3. > 10 µM
4. 0.1 to 1 µM
5. 0.1 to 1 µM
6. > 10 µM
7. > 10 µM
